assaySystem: T1, IL-4 (UniProt P05112 25-153)
T1 sequence (looked up): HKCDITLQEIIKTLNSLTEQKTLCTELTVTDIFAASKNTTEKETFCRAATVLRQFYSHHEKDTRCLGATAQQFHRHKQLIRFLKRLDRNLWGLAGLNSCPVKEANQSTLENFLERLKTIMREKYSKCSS
assayNotes: ELISA on plate-coated cytokine (2 µg/ml)

binder	binding result
murine monoclonal antibody 19E3 (antibody, V domains shown, also called 19E3.1) VH: QVQLQQPGSELVMPGASVKMSCKASGYIFTDYWMHWVKQRPGQGLEWIGTIDPSDNYTIYSQNFKGKATLTVDESSSTAYMLLSSLTSEDSAVYFCARYGFAMDYWGQGTSVTVSS VL: DIQLTQTTSSLSASLGDRVTISCRASQDISNFLNWYQQTPDGTVKLLIYYTSRLHSGVPSRFSGSGSGTDYSLTISNLEQEDIATYFCQQGHTLPRTFGGGTKLEIK	no binding
murine monoclonal antibody 8B6 (antibody, V domains shown, also called 8B6.1) VH: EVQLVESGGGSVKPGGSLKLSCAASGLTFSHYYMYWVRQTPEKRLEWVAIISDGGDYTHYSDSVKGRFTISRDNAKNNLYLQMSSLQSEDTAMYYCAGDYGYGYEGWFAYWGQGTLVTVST VL: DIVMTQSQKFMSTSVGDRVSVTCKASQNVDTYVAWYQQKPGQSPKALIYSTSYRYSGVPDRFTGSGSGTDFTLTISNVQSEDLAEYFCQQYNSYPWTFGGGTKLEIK	no binding
murine monoclonal antibody 9H10 (antibody, V domains shown, also called 9H10.1) VH: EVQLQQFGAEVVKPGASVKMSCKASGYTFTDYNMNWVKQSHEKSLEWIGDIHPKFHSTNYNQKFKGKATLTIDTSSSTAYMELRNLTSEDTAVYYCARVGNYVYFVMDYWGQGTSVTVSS VL: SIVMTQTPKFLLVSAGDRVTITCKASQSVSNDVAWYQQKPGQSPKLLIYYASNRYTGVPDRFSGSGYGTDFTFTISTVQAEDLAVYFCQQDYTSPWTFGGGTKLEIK	no binding

Values compiled from patent US20200164069A1.
